# Test system: SK-OV-3 ovarian
# experiment: NCI-60 one-dose screen, 48 h (100 = growth as untreated, 0 = no growth, -100 = all killed)
# run parameters: 10 µM unless noted
The panel holds about 83,000 compounds, 20% with a hit somewhere; the sample as a whole holds those more often.
Labelling: growth reported below 70% becomes 1; at or above becomes 0.

Enquiry: Item COc1ccccc1[C@H]1c2[nH]c3ccccc3c2C[C@H]2C(=O)N(CCCCCCC(=O)NO)CC(=O)N12 : growth beneath 70%, strictly?
Return: 1

Enquiry: Item O=C(CN1CCCCC1)Sc1nnc2sc3ccccc3n12 : growth beneath 70%, strictly?
Return: 0

Enquiry: Item C=C1CC[C@@H]2[C@](C)(COC(C)=O)[C@H](OC(C)=O)CC[C@@]2(C)[C@@H]1CC(Nc1ccc(S(=O)(=O)Nc2cc(C)on2)cc1)C1=CCOC1=O (some centres undefined) : growth beneath 70%, strictly?
Return: 0

Enquiry: Item Cc1cc2c(cc1[N+](=O)[O-])NC(CNC(C)C)CC2 (centres undefined) : growth beneath 70%, strictly?
Return: 0

Enquiry: Item O=C(CSCC(=O)N/N=C/c1ccccc1O)N/N=C\c1ccccc1O : growth beneath 70%, strictly?
Return: 1

Enquiry: Item COc1ccc(C2CC(c3ccc(OC)c(OC)c3)=NN2C(=O)c2cc(OC)c(OC)c(OC)c2)c(OC)c1 (centres undefined) : growth beneath 70%, strictly?
Return: 1

Enquiry: Item O=c1ccn(C2CCCO2)c(=O)[nH]1 (centres undefined) : growth beneath 70%, strictly?
Return: 0

Enquiry: Item Cn1cc(-c2nc(-c3c[nH]c4ncc(F)cc34)cs2)c2cccnc21 : growth beneath 70%, strictly?
Return: 0

Enquiry: Item COc1ccc(Cn2c(NCCCN(C)C)nc(=O)n(Cc3ccc(F)cc3)c2=O)cc1 : growth beneath 70%, strictly?
Return: 0
